Measure: melting point

Record Smiles	Endpoint Result
COc1cc(C(=O)/C(C#N)=C/c2oc3ccccc3c2C)cc(OC)c1OC	136.7 to 138.5 °C
COc1cc(C(=O)/C(C)=C/c2cc3ccccc3s2)cc(OC)c1OC	81.4 to 83.2 °C
COc1cc(C(=O)/C(C#N)=C/c2ccc3oc4ccccc4c3c2)cc(OC)c1OC	181.3 to 182.6 °C
COc1cc(C(=O)/C(C#N)=C/c2c(C)[nH]c3ccccc23)cc(OC)c1OC	216.5 to 218.2 °C

----------
Quick list: IC50 per entry.
# Test system: taxol-resistant MCF7 cells (MCF7/Tax)
# Assay Info: Growth inhibition of taxol-resistant cells
# Format: cell-based, human
# Condition Set: Homo sapiens, MCF7, three single determinations; read-out: MCF-7/Taxol (raw data of table 3, IC50)

Compound	IC50 (µM)
CC(=O)O[C@H]1C(=O)[C@@]2(C)[C@H]([C@H](OC(=O)c3ccccc3)[C@]3(O)C[C@H](OC(=O)[C@H](O)[C@@H](NC(=O)c4ccccc4)c4ccccc4)C(C)=C1C3(C)C)[C@]1(OC(C)=O)CO[C@@H]1C[C@@H]2O	0.334
COc1ccc(/C=C\c2cc(OC)c(OC)c(OC)c2)cc1O [CA-4, reference compound]	0.0202

----------
Measured melting point accompanies every entry in the list below.

Record Smiles	melting point
COc1cc(C(=O)/C=C/c2ccc3oc4ccccc4c3c2)cc(OC)c1OC	56.5 to 57.6 °C
COc1cc(C(=O)/C=C/c2c[nH]c3cc(Br)ccc23)cc(OC)c1OC	216.4 to 217.6 °C
COc1cc(C(=O)/C(C#N)=C/c2cc3ccccc3o2)cc(OC)c1OC	168.3 to 169.5 °C
COC(=O)c1ccc2[nH]cc(/C=C(\C#N)C(=O)c3cc(OC)c(OC)c(OC)c3)c2c1	> 260 °C
COc1cc(C(=O)/C(C)=C/c2oc3ccccc3c2C)cc(OC)c1OC	113.2 to 115.1 °C
COC(=O)c1ccc2c(/C=C(\C)C(=O)c3cc(OC)c(OC)c(OC)c3)c[nH]c2c1	229.3 to 231.7 °C
COc1cc(C(=O)/C=C/c2c(-c3ccccc3)[nH]c3ccccc23)cc(OC)c1OC	60.2 to 61.7 °C
COc1cc(C(=O)/C(C#N)=C/c2c[nH]c3cc(Br)ccc23)cc(OC)c1OC	266.5 to 268.2 °C

----------
// IC50 lookup, one value per entry
# Tested on: MGC-803
# Assay Info: Antiproliferative activity (SRB and CCK-8 assay)
# Assay type: cell-based
# Condition Set: Homo sapiens, triplicate, mean ± SD, read-out: IC50 ± SD, MGC-803

Record Smiles	Unit Annotation	Operator	IC50
COc1cc(C(=O)/C=C/c2csc3ccccc23)cc(OC)c1OC	nM	=	76
COc1cc(C(=O)/C=C/c2cc3ccccc3o2)cc(OC)c1OC	nM	=	8780
COC(=O)c1ccc2[nH]cc(/C=C/C(=O)c3cc(OC)c(OC)c(OC)c3)c2c1	nM	>	20000
COc1cc(C(=O)/C=C/c2ccc3occc3c2)cc(OC)c1OC	nM	=	3180
COc1cc(C(=O)/C=C/c2ccc3c(c2)CCO3)cc(OC)c1OC	nM	=	851
COc1cc(C(=O)/C=C/c2c(-c3ccccc3)[nH]c3ccccc23)cc(OC)c1OC	nM	=	104
COc1cc(C(=O)/C=C/c2nc3ccccc3n2C)cc(OC)c1OC	nM	=	2030
COc1cc(C(=O)/C=C/c2cc3ccccc3s2)cc(OC)c1OC	nM	=	1380
COC(=O)c1cccc2[nH]cc(/C=C/C(=O)c3cc(OC)c(OC)c(OC)c3)c12	nM	>	20000
